# Protocol Notes: self-splicing fitness, log relative to wild type (ln ratio); higher = more splicing; Tetrahymena group I intron in knt gene, E. coli kanamycin selection, DiMSum; sequences stand for … in CUCUCU…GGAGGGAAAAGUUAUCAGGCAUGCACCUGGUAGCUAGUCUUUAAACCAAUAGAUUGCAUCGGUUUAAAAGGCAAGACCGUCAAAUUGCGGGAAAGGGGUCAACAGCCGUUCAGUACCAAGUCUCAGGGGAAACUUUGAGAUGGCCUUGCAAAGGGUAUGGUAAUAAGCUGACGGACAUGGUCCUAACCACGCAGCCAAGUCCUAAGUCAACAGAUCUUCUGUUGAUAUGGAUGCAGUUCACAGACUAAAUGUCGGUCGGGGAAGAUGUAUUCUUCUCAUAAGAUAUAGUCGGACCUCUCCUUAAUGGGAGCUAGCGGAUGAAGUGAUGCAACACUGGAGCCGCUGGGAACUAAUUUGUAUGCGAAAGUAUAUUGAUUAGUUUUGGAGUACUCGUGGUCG;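 note: selection with 25 µg/mL kanamycin versus none on LB agar overnight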
# Settings: 30 °C
So basically, the class depends on measured self-splicing fitness (ln), and the ranges are range 1 (below -3), range 2 (-3 to below -2), range 3 (-2 or more)

>  <Input Sequence>
GGCGAGCAAUAUUACGGGUC

>  <Assigned Class>
range 3

$$$$
>  <Input Sequence>
UUCGAGCAAUAUUACGAAUG

>  <Assigned Class>
range 1

$$$$
>  <Input Sequence>
AUAUAGCAAUAUUACGCGCC

>  <Assigned Class>
range 3

$$$$
>  <Input Sequence>
AGACAGCAAUAUUACGAGAG

>  <Assigned Class>
range 1

$$$$
>  <Input Sequence>
UACUAGCAAUAUUACGACAA

>  <Assigned Class>
range 3

$$$$
>  <Input Sequence>
CCUGAGCAAUAUUACGAAGC

>  <Assigned Class>
range 2

$$$$
>  <Input Sequence>
AUGAAGCAAUAUUACGGGUC

>  <Assigned Class>
range 1

$$$$
>  <Input Sequence>
AUGAAGCAAUAUUACGGGAC

>  <Assigned Class>
range 2

$$$$
>  <Input Sequence>
UCACAGCAAUAUUACGCGCU

>  <Assigned Class>
range 1

$$$$
>  <Input Sequence>
ACUCAGCAAUAUUACGGGGG

>  <Assigned Class>
range 3

$$$$
>  <Input Sequence>
CGGCAGCAAUAUUACGGAGA

>  <Assigned Class>
range 3

$$$$
>  <Input Sequence>
GAACAGCAAUAUUACGUCAA

>  <Assigned Class>
range 3

$$$$
>  <Input Sequence>
CCAUAGCAAUAUUACGGCUC

>  <Assigned Class>
range 2

$$$$
>  <Input Sequence>
CAUAAGCAAUAUUACGUGGA

>  <Assigned Class>
range 1

$$$$
>  <Input Sequence>
UCUCAGCAAUAUUACGCUAU

>  <Assigned Class>
range 1

$$$$
>  <Input Sequence>
CCAUAGCAAUAUUACGACGG

>  <Assigned Class>
range 1

$$$$
